Origin of measurements: PubChem BioAssay (Tox21)

assay: qHTS assay to identify small molecule agonists of the hypoxia (HIF-1) signaling pathway - cell viability counter screen (AID 1224844); settings: HRE-bla ME-180 viability, CellTiter-Glo luminescence, 17 h; series mostly up to 76.8 µM; also: nearly all actives have a fitted effect of over 50% in size
Results filed as inconclusive are left out. The source made the active and inactive calls. Calls follow the shape of the full dose curve.
Return exactly one item of YES = active, NO = inactive

Please review the following examples before continuing.
Cc1cc(=O)oc2cc(O)ccc12: NO
CC(C)c1c(C(=O)Nc2ccccc2)c(-c2ccccc2)c(-c2ccc(F)cc2)n1CC[C@@H](O)C[C@@H](O)CC(=O)O: NO
Nc1c2c(nc3ccccc13)CCCC2: NO
CN(N=O)C(=O)N[C@@H]1[C@@H](O)[C@H](O)[C@@H](CO)O[C@@H]1O: NO
O=CC(=O)c1ccccc1: NO

Which outcome was assigned to Cc1cc(C)nc(NS(=O)(=O)c2ccc(N)cc2)n1 in this test?
NO

Test call for this molecule, please: O=C(O)c1ccccc1
NO

Write down the call the test reported for this molecule. Item: CC1(C)O[C@@H]2C[C@H]3[C@@H]4CCC5=CC(=O)C=C[C@]5(C)[C@@]4(F)[C@@H](O)C[C@]3(C)[C@]2(C(=O)CO)O1
NO

Recorded call for O=C1O[C@H]([C@@H](O)CO)C(O)=C1O ?
NO

Hi team, can someone confirm the assay call for NC1CCCCC1 ?
NO

What outcome does the record of this test show for Cn1c(=O)c2c(ncn2C)n(C)c1=O ?
NO

Test call for this molecule, please: Nc1ccc(O)c([N+](=O)[O-])c1
NO

Record lookup: outcome of this test for NC(=O)n1c(O)c(C(=O)c2cccs2)c2cc(Cl)ccc21 ?
NO

Look up the recorded call for CC(=O)CCC(=O)O in this test.
NO

Record request — test call for C=CCc1ccc(O)c(OC)c1
NO

Per the records of this test, what outcome belongs to C=C(C)C(=O)OCC(C)O (stereo unspecified) ?
NO

// return assay outcome for CCCCC(CC)C(=O)O (stereo unspecified)
NO

Called result for C=C1CC[C@H](O)C/C1=C\C=C1/CCC[C@]2(C)[C@@H]([C@H](C)CCCC(C)C)CC[C@@H]12
YES
